Molecular target: T1, human CD112R antigen protein huCD112R-His (Acro Biosysterm, PVG-H52H4) (human, UniProt Q6DKI7 41-171)
T1 construct: purchased; also called human antigen protein; not shown: His tag
T1 sequence (looked up): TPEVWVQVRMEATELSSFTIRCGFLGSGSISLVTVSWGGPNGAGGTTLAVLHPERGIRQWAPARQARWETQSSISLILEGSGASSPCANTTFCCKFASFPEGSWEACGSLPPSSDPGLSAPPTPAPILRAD
Assay: ELISA, huCD112R-His coated on plate
property.label: pEC50
For clarity, pEC50 is expressed as the negative log10 of concentration in mol/L.

C25 (antibody, human IgG1, kappa, V domains shown) VH: QVQLQQPGAELVRPGTSVKLSCKASGNTFTSYWMHWVKQRPGQGHEWIGVIDASDSKTKYNQKFKGKATLTVDTSSSTAYMQLSSLTSEDSAVYYCARYYSGSSYGLDYWGQGTTLTVSS VL: DIQMTQTASSLSASLGDRVTISCRASQDISNYLNWYQQKPDGTVKLLIYYTSRLHSGVPSRFSGSGSGTDYSLTISNLEQEDIATYFCQQGNTLPPTFGGGTKLEIKR: 10.28

Please turn your attention to the following entry.
Req: I have this binder here, C138 (antibody, human IgG1, kappa, V domains shown) VH: EVQLVESGGGLVKPGGSLKLSCAASGFTFSSYAMSWVRQTPAKRLEWVATITSGDIRTYYPDTVKGRFTISRDNAKNTLYLQMRSLRSEDTAMYYCVGHDDFHFYAMDYWGQGTSVTVSS VL: QIVLTQSPAIMSASPGEKVTMTCSASSSVSYLYWYQQKPGSSPRLLIYDTSNLASGVPVRFSGSGSGTSYSLTLSRMEAEDAATYYCQQWSSYPLTFGAGTKLELKR , and I need its recorded pEC50.
Resp: 10.41
